Cited source for all entries: ChEMBL document CHEMBL1129428

# protocol notes: Compound was tested for toxicity after oral administration in rat by using neurotoxicity screen test after 4 hr
# Type: organism-based
# reported conditions: in vivo
value type: TD50 at 4 h

### Prompt Give the reported TD50 at 4 h for this molecule. C/C(=N/NC(N)=O)c1ccc(Oc2ccc(Cl)cc2)cc1
### Response < 500 mg/kg

### Prompt Tell me TD50 at 4 h reported for CC/C(=N/NC(N)=O)c1ccc(Oc2ccc(F)cc2)cc1
### Response > 72 mg/kg

### Prompt Please look at this molecule and report its TD50 at 4 h: NC(=O)N/N=C/c1ccc(Sc2ccc(F)cc2)cc1
### Response 183 mg/kg

###

# protocol notes: Compound was tested for toxicity after intraperitoneal injection into mice by using neurotoxicity screen test after 4 hr
# Format: organism-based
# reported conditions: mouse, in vivo, ip
Answer each item with its documented TD50 at 4 h.
API: value field is a number in mg/kg; no unit string.

### Prompt Return TD50 at 4 h for the following compound: CCC(C)c1ccc(Oc2ccc(/C=N\NC(N)=O)cc2)cc1 (stereo not given)
### Response 131

### Prompt Recall and state the measured TD50 at 4 h for CCCc1ccc(Oc2ccc(/C=N/NC(N)=O)cc2)cc1 .
### Response 243

### Prompt State its TD50 at 4 h: CC/C(=N/NC(N)=O)c1ccc(Oc2ccc(Br)cc2)cc1
### Response 52.5

### Prompt Let me know recorded TD50 at 4 h for Cc1ccc(Sc2ccc(/C=N/NC(N)=O)cc2)cc1 , thanks.
### Response 197

### Prompt Determine from records and report TD50 at 4 h for CC(C)(C)c1ccc(Oc2ccc(/C=N\NC(N)=O)cc2)cc1
### Response 106

###

# System: Rattus norvegicus
# protocol notes: Compound was tested for anticonvulsant activity after Oral Administration into Rats by using MES screen test after 0.5h,dose 30 mg/kg; No activity was demonstarted
# Assay type: functional, organism-based
# Design: dose 30 mg/kg
value type: Activity

O=CN/N=C/c1ccc(Sc2ccc(F)cc2)cc1    No activity
CC/C(=N/NC(N)=O)c1ccc(Sc2ccc(F)cc2)cc1    No activity
NNC(=O)N/N=C/c1ccc(Oc2ccc(F)cc2)cc1    No activity
NC(=O)N/N=C\c1ccccc1Oc1ccc(F)cc1    No activity

###

# Test system: Mus musculus
# protocol notes: Compound was tested for toxicity after intraperitoneal injection into mice by using toxicity screen test after 4 hr
# Format: organism-based
# reported conditions: in vivo, ip
For each entry below, report its Dose value.
Please provide the amount together with its unit, number first.

### Prompt Return the recorded Dose value; entry: CCC(C)c1ccc(Oc2ccc(/C=N\NC(N)=O)cc2)cc1 (configuration not stated)
### Response 100 mg/kg

### Prompt # return recorded Dose for input CC/C(=N/NC(N)=O)c1ccc(Sc2ccccc2)cc1
### Response 100 mg/kg

### Prompt Read the entry NC(=O)N/N=C/c1ccc(Oc2ccc(Cl)c(Cl)c2)cc1 and write its reported Dose.
### Response 300 mg/kg

### Prompt In one line, give reported Dose of the entry N=C(N)N/N=C/c1ccc(Sc2ccc(F)cc2)cc1 .
### Response 100 mg/kg

### Prompt Supply Dose value. Item: C/C(=N/NC(N)=O)c1ccc(Oc2ccccc2)cc1
### Response 100 mg/kg

### Prompt Return the recorded Dose value; entry: NC(=O)N/N=C/c1ccc(Oc2cc(F)ccc2F)cc1
### Response 300 mg/kg

### Prompt Please give the documented Dose of NC(=O)N/N=C\c1ccc(Oc2ccc(-c3ccccc3)cc2)cc1
### Response 300 mg/kg

### Prompt Indicate the recorded Dose value for this compound: CCCCc1ccc(Oc2ccc(/C=N/NC(N)=O)cc2)cc1
### Response 300 mg/kg

### Prompt Give a short answer stating reported Dose for N#Cc1ccc(Oc2ccc(/C=N\NC(N)=O)cc2)cc1 .
### Response 100 mg/kg

### Prompt Give recorded Dose. CC/C(=N/NC(N)=O)c1ccc(Oc2ccc(Cl)cc2)cc1
### Response 100 mg/kg

### Prompt Name the recorded Dose of the compound listed here: Cc1ccc(Sc2ccc(/C=N/NC(N)=O)cc2)cc1
### Response 100 mg/kg

### Prompt Look up and report measured Dose for this entry: CC(C)(C)c1ccc(Oc2ccc(/C=N\NC(N)=O)cc2)cc1
### Response 100 mg/kg

###

Kindly state ED50 for each of the entries shown.
# System: Mus musculus
# protocol notes: Compound was tested for anticonvulsant activity after intraperitoneal injection into mice by using MES screen test after 2 hr
# Format: functional
# reported conditions: ip
Numbers only here, please. The scale is mg/kg.

### Prompt Fill in ED50 for record C/C(=N/NC(N)=O)c1ccc(Oc2ccc(Cl)cc2)cc1
### Response 9.14

### Prompt Entry NC(=O)N/N=C/c1ccc(Sc2ccc(Br)cc2)cc1 needs its ED50 filled in; supply it.
### Response 24.4

### Prompt Report measured ED50; entry is NC(=O)N/N=C/c1ccc(Oc2ccc(Cl)cc2F)cc1
### Response 3.31

### Prompt Fill in reported ED50 for this entry: CCc1ccc(Oc2ccc(/C=N/NC(N)=O)cc2)cc1
### Response 10.3

### Prompt Provide only the value of recorded ED50 for C/C(=N/NC(N)=O)c1ccc(Oc2ccc(Br)cc2)cc1
### Response 12.5

###

# protocol notes: Compound was tested for toxicity after intraperitoneal injection into mice by using neurotoxicity screen test after 0.5 hr
# reported conditions: mouse, in vivo, ip
value type: TD50 at 0.5 h (mg/kg)
Respond numerically; units are mg/kg and should not be typed.

### Prompt Provide one value: measured TD50 at 0.5 h of O=C1NC(=O)C(c2ccccc2)(c2ccccc2)N1
### Response 41.2

###

Would you mind telling me the reported TD50 at 2 h of each entry?
# protocol notes: Compound was tested for toxicity after intraperitoneal injection into mice by using neurotoxicity screen test after 2 hr
# Format: organism-based
# reported conditions: mouse, in vivo, ip
Number in mg/kg, nothing else.

### Prompt Supply measured TD50 at 2 h of NC(=O)N/N=C/c1ccc(Sc2ccc(F)cc2)cc1 in your reply.
### Response 88

### Prompt Return reported TD50 at 2 h. Input compound: NC(=O)N/N=C/c1ccc(Sc2ccc(Br)cc2)cc1
### Response 123

### Prompt Look up TD50 at 2 h of CC/C(=N/NC(N)=O)c1ccc(Oc2ccc(F)cc2)cc1 and report it.
### Response 35.3

### Prompt Dear colleague, please send me the reported TD50 at 2 h for CCc1ccc(Oc2ccc(/C=N/NC(N)=O)cc2)cc1 when you can.
### Response 34

### Prompt # return recorded TD50 at 2 h for entry NC(=O)N/N=C/c1ccc(Sc2ccc(Cl)cc2)cc1
### Response 53.2

### Prompt Give the reported value of TD50 at 2 h for this record: C/C(=N/NC(N)=O)c1ccc(Oc2ccc(Cl)cc2)cc1
### Response 76.5

### Prompt Give the reported TD50 at 2 h for this compound. NC(=O)N/N=C/c1ccc(Sc2ccccc2)cc1
### Response 181

### Prompt Give the value of TD50 at 2 h reported for the following: NC(=O)N/N=C/c1ccc(Oc2ccccc2F)cc1
### Response 170

### Prompt Name the recorded TD50 at 2 h of the item NC(=O)N/N=C\c1ccc(Oc2cccc(F)c2F)cc1 in your answer.
### Response 293

### Prompt Determine its reported TD50 at 2 h: Cc1ccc(Oc2ccc(/C=N/NC(N)=O)cc2)cc1
### Response 204

### Prompt Give the reported value of TD50 at 2 h for this record: Cc1ccc(C)c(Oc2ccc(/C=N/NC(N)=O)cc2)c1
### Response 356

### Prompt Determine from records and report TD50 at 2 h for C/C(=N/NC(N)=O)c1ccc(Oc2ccc(F)cc2)cc1
### Response 60.7

### Prompt Return TD50 at 2 h for the following compound: C/C(=N/NC(N)=O)c1ccc(Oc2ccc(Br)cc2)cc1
### Response 104

###

# protocol notes: Compound was tested for toxicity after oral administration in rat by using neurotoxicity screen test after 0.5 hr
# reported conditions: in vivo
value type: TD50 at 0.5 h (mg/kg)
# output: bare number, implied unit mg/kg

### Prompt State, in one line, measured TD50 at 0.5 h of CCCC(CCC)C(=O)O [VALPROIC ACID]
### Response 859

###

# System: Mus musculus
# protocol notes: Compound was tested for toxicity after intraperitoneal injection into mice by using toxicity screen test after 4 hr
# Assay type: organism-based
# reported conditions: in vivo, ip
So I've got a bunch of compounds here, and I need their Dose values.
The response must be a number in mg/kg with no trailing unit.

### Prompt Lab note: record Dose of NC(=O)N/N=C/c1ccc(Oc2cc(F)cc(F)c2)cc1 tested on Mus musculus.
### Response 300

### Prompt Supply Dose measured with Mus musculus for CC(=O)N/N=C/c1ccc(Oc2ccc(F)cc2)cc1 .
### Response 100

### Prompt State the measured Dose (Mus musculus) of CC/C(=N/NC(N)=O)c1ccc(Sc2ccc(F)cc2)cc1
### Response 100

### Prompt Look up Mus musculus data: Dose of CC/C(=N/NC(N)=O)c1ccc(Oc2ccc(F)cc2)cc1 , then report it.
### Response 100

### Prompt Using Mus musculus as the test system, report measured Dose of N=C(S)N/N=C/c1ccc(Oc2ccc(F)cc2)cc1 .
### Response 30

### Prompt # return Dose of NC(=O)N/N=C/c1ccc(Sc2ccc(Cl)cc2)cc1 (system: Mus musculus)
### Response 100
